# target_or_test_system: UniProt:P28223
# Sequence (P28223 whole entry): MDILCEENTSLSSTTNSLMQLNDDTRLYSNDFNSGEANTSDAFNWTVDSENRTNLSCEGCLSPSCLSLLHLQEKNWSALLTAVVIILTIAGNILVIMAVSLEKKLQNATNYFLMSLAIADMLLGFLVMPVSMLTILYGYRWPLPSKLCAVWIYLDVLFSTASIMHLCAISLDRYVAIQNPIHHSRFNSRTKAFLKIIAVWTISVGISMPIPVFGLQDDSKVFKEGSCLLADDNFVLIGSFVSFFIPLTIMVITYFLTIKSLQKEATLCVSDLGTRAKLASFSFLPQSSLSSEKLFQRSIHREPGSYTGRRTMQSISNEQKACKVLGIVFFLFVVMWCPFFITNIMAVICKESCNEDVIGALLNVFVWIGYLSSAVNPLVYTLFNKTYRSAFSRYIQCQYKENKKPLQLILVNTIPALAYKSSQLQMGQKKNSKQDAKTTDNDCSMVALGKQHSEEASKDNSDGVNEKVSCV
observation_type: pKi
Numbers only, as −log10 of the molar value.

The following compounds have reported results that may help.
CCCN1CCc2cc(OC)cc3c2[C@H]1Cc1cccc(OC(=O)c2ccc(F)cc2)c1-3; 6.38
COc1cc2c3c(c1)-c1c(cccc1OC(=O)c1ccc(F)cc1)C[C@H]3N(C)CC2; 6.35
COc1cc2c3c(c1)-c1c(cccc1OCCF)C[C@H]3N(C)CC2; 5.94

Field: pKi. Fill in for each record below.
1. COc1cc2c3c(c1)-c1c(cccc1OCCCF)C[C@H]3N(C)CC2
2. COc1cc2c3c(c1)-c1c(cccc1OCc1ccc(F)cc1)C[C@H]3N(C)CC2

Result:
1: 6.36; 2: 5.64
